Where these numbers come from: patent US7880007B2

- systemName: M1 muscarinic receptor (Homo sapiens)
- Construct: expressed in transfected cells; host or cells: CHO (M1-CHO)
- Sequence (P11229 1-460): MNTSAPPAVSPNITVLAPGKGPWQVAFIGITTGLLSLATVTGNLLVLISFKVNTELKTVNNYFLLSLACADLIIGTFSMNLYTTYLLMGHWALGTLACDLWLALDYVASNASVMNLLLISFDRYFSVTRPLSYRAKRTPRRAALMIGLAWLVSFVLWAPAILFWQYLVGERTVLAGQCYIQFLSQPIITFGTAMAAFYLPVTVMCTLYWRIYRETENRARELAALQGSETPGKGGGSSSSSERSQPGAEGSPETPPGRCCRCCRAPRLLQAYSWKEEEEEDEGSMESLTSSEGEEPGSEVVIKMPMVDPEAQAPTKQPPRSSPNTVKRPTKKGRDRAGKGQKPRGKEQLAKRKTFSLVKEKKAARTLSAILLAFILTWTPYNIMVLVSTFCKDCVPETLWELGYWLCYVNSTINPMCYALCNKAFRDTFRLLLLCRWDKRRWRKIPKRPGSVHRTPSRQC
- measurementDescription: Functional mobilization of intracellular calcium (FLIPR), M1-CHO cells
- Type: cell-based
- statedConditions: 100% efficacy = maximum response obtained with the Carbachol control
So I've got a bunch of molecules here, and I need their Emax values.

Exercise: So what does the record say about Emax for `COc1ccccc1C1(C#N)CCN(C[C@H]2C[C@H]3CC[C@H]2C3)CC1` ?
Key: 25 to 100%

Exercise: So what does the record say about Emax for COc1ccccc1C1CCN(C2CCCC3(CCCCC3)C2)CC1 (stereo not shown) ?
Key: < 25%

Exercise: So what does the record say about Emax for `COc1ccccc1[C@@H]1CCN([C@@H]2C[C@H]3CC[C@H]2C3)C[C@H]1O` ?
Key: < 25%

Exercise: So what does the record say about Emax for `COc1ccc(Cl)cc1C1CCN(CC2CCOCC2)CC1` ?
Key: 25 to 100%

----------
- systemName: M1 muscarinic receptor (Homo sapiens)
- Construct: expressed in transfected cells; host or cells: CHO (M1-CHO)
- Sequence (P11229 1-460): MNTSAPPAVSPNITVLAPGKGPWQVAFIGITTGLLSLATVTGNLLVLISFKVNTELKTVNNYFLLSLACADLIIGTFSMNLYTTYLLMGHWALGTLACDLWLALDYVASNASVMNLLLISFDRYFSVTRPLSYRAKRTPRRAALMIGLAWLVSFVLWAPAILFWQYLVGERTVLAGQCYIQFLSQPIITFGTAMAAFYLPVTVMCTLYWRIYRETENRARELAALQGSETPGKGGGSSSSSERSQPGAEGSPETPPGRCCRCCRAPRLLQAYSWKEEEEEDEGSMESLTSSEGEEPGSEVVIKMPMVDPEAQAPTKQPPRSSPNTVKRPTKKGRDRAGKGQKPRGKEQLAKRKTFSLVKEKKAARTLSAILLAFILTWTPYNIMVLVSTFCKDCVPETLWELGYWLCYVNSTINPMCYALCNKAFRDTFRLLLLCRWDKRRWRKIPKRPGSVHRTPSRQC
- measurementDescription: Functional mobilization of intracellular calcium (FLIPR), M1-CHO cells
- Format: cell-based
- statedConditions: 100% efficacy = maximum response obtained with the Carbachol control
parameter: Emax

Exercise: So what does the record say about Emax for `COc1cc(F)c(F)cc1C1CCN([C@H]2C[C@H]3CC[C@H]2C3)CC1` ?
Key: 25 to 100%

Exercise: So what does the record say about Emax for CNC(=O)c1ccc(-c2ccc(OC)c(C3CCN(C4CC5CCC(C5)C4)CC3)c2)cc1Cl (stereo not shown) ?
Key: < 25%

Exercise: So what does the record say about Emax for `COc1ccc(-c2ccc(C(C)(C)C#N)cc2)cc1C1CCN(C2CCOCC2)CC1` ?
Key: 25 to 100%

Exercise: So what does the record say about Emax for `COc1ccccc1C1CCN(CC2=CC[C@@H]3C[C@@H]2C3(C)C)CC1` ?
Key: < 25%

Exercise: So what does the record say about Emax for `COc1ccc(C(C)(C)C)cc1C1CCN([C@@H]2C[C@@H]3CC[C@H]2C3)CC1` ?
Key: 25 to 100%

Exercise: So what does the record say about Emax for Cc1ccc(C)c(C2CCN(CC3CC4C=CC3C4)CC2)c1 (stereo not shown) ?
Key: 25 to 100%

Exercise: So what does the record say about Emax for `COc1ccc(-c2ccc(S(C)(=O)=O)cc2)cc1C1CCN(C2CCOCC2)CC1` ?
Key: < 25%

Exercise: So what does the record say about Emax for COc1ccccc1C1CCN(C2CC3CCC2O3)CC1 (stereo not shown) ?
Key: < 25%

Exercise: So what does the record say about Emax for Cc1ccc(Cl)cc1C1CCN(CC2C[C@H]3CC[C@H]2C3)CC1 (stereo partly shown) ?
Key: 25 to 100%

Exercise: So what does the record say about Emax for `c1ccc(C2CCN([C@H]3C[C@H]4CC[C@H]3C4)CC2)c(-c2ccc3c(c2)OCO3)c1` ?
Key: 25 to 100%

Exercise: So what does the record say about Emax for `Cc1ccccc1C1CCN(C2CCOCC2)CC1` ?
Key: 25 to 100%

Exercise: So what does the record say about Emax for `COc1ccc(Cl)cc1C1CCN(C2CCOCC2)CC1` ?
Key: 25 to 100%

Exercise: So what does the record say about Emax for `CCS(=O)(=O)c1ccc(-c2ccc(OC)c(C3CCN([C@H]4C[C@H]5CC[C@H]4C5)CC3)c2)cc1` ?
Key: 25 to 100%

Exercise: So what does the record say about Emax for `COc1ccc(-c2ccccc2)cc1C1CCN([C@H]2C[C@H]3CC[C@H]2C3)CC1` ?
Key: < 25%

Exercise: So what does the record say about Emax for CCOC(=O)N1C2CCC1CC(N1CCC(c3cc(-c4ccc(C(C)(C)C#N)cc4)ccc3OC)CC1)C2 (stereo not shown) ?
Key: 25 to 100%

Exercise: So what does the record say about Emax for `COc1ccc(C#CCC(C)C)cc1C1CCN([C@H]2C[C@H]3CC[C@H]2C3)CC1` ?
Key: < 25%
